# TARGET UNDER TEST: HLA-A*68:01
# METHOD NOTES: IEDB peptide-MHC binding, purified MHC/competitive/radioactivity; bounds were set here for any values at or beyond the usual limits of such assays
# CONDITION PARAMETERS: source organism: Hepatitis B virus
QUANTITY: IC50 (nM)
Unit nM implied. Number only.

Entry `VVDFSQFSR` — recorded IC50 = 320

* * *

# TARGET UNDER TEST: HLA-B*53:01
# METHOD NOTES: IEDB peptide-MHC binding, purified MHC/competitive/radioactivity; bounds were set here for any values at or beyond the usual limits of such assays
# CONDITION PARAMETERS: source organism: Hepatitis B virus
QUANTITY: IC50 (nM)
Unit nM implied. Number only.

Entry `YPALMPLYA` — recorded IC50 = 664
